# measured.target: Androgen receptor (Homo sapiens)
# assay.info: Antagonist activity against androgen receptor (unknown origin)
# recorded.conditions: read-out: IC50
pIC50: −log10 of the molar value.
Here, each record is paired with measured pIC50 data.
reported.metric: pIC50

molecule | experimental.value
Cc1cc(=O)oc2cc(OC(C)C(=O)c3ccccc3)ccc12 (stereo not drawn) | 5.29
CCOC(=O)C(CC)Oc1ccc2c(C)cc(=O)oc2c1 (stereo not drawn) | 5.30
Cc1cc(=O)oc2cc(OCC(=O)C(C)(C)C)ccc12 | 5.42

* * *

# measured.target: Androgen receptor (Homo sapiens, UniProt P10275)
# Sequence (P10275 whole entry): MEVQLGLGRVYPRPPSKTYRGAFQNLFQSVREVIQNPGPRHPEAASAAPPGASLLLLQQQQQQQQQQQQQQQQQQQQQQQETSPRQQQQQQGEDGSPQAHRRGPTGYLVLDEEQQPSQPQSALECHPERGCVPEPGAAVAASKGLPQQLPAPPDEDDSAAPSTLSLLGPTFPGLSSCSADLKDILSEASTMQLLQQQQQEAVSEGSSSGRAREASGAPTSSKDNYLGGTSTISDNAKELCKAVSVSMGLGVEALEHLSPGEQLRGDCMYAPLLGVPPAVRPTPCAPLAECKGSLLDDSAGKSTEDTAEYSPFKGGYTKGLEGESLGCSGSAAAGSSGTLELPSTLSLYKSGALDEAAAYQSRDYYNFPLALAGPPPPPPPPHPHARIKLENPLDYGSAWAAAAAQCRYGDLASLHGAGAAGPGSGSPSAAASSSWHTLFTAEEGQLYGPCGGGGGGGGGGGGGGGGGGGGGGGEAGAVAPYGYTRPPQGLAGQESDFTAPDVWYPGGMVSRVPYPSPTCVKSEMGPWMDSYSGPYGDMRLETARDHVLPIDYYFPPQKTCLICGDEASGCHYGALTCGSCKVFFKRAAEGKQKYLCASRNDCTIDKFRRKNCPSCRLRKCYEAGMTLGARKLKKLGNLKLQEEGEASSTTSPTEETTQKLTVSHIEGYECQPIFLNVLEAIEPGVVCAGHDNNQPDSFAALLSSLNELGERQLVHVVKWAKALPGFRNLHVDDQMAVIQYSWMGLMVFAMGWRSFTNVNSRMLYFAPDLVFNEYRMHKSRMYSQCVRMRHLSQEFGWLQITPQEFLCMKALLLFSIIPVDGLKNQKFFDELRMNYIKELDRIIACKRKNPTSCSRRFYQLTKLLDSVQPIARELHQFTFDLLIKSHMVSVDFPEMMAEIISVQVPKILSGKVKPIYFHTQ
# assay.info: Antagonist activity against androgen receptor (unknown origin)

structure.string | IC50
Cc1ccc(C(=O)COc2ccc3c(C)cc(=O)oc3c2)cc1 | Not Active
O=C(COc1ccc2c(C(F)(F)F)cc(=O)oc2c1)c1ccccc1 | Not Active
Cc1cc(=O)oc2cc(OCC(=O)c3ccc4c(c3)OCCCO4)ccc12 | Not Active
COc1ccc(C(=O)COc2ccc3c(C)cc(=O)oc3c2)cc1 | Not Active
Cc1cc(=O)oc2cc(OCC(=O)c3ccc(C(F)(F)F)cc3)ccc12 | Not Active
O=C(COc1ccc2c(C(F)(F)F)cc(=O)oc2c1)c1cccc(C(F)(F)F)c1 | Not Active
CC(C)(C)c1ccc(C(=O)COc2ccc3c(C(F)(F)F)cc(=O)oc3c2)cc1 | Not Active
O=C(COc1ccc2c(C(F)(F)F)cc(=O)oc2c1)c1ccccc1C(F)(F)F | Not Active
Cc1cc(=O)oc2cc(OCC(=O)c3ccc(OC(F)(F)F)cc3)ccc12 | Not Active
Cc1ccc(C(=O)COc2ccc3c(C(F)(F)F)cc(=O)oc3c2)cc1 | Not Active

Data origin, for the record: ChEMBL document CHEMBL3784967
